# SYSTEM UNDER TEST: full length human SIRPα v1 with a small beta-gal fragment (ED) fused to its C-terminal, expressed in K562 … (human, UniProt P78324 31-504)
# Sequence (P78324 31-504): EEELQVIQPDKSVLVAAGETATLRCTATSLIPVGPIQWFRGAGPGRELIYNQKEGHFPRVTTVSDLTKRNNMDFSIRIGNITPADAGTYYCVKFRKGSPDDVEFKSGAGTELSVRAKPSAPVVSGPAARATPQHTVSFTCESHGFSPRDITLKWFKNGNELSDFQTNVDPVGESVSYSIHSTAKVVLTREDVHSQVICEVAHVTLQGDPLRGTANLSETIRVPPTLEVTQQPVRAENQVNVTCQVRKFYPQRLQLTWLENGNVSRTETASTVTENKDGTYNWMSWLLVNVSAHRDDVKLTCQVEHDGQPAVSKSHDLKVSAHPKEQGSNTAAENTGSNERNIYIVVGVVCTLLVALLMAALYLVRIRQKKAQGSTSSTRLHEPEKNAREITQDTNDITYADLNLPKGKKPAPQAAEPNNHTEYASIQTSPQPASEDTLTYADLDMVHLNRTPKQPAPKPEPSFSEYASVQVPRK
# ASSAY PROCEDURE: cell-based or functional assay

>  <BINDER>
073 (antibody, V domains shown, Mouse monoclonal hybridoma antibody; also called antibody 073; hybridoma antibody 073) VH: QIQLVQSGPELKKPGETVKISCKASGYTFTTYGMSWVKQAPGKGLKWMVWINTYSGVPTYADDFKGRFAFSLETSASTSYLQINNLKNEDTATYFCARDPHYYGSSPAWFVYWGQGTLVTVSA VL: DIVMTQSQKFMSTTIGDRVSITCEASQIVGIAVAWYQQKPGQSPKLLIYSASNRYTGVPDRFTGSGSGTDFTLTISNMQSEDLANYFCQQYSAYPFTFGSGTKLEVK

>  <SHP-1 recruitment (% blocking), Test II (%)>
75.9

$$$$
